IC50: recorded values
molecular target: benzodiazepine site of the GABA-A receptor; assay: Benzodiazepine Receptor Binding Assay (inhibition of 3H-flunitrazepam binding); details: Table 1; ca. 3 nM 3H-flunitrazepam, 25° C., 10-20 min; >10,000 = not active
Answer with a number only, understood to be in nM.

molecule | IC50 (nM)
O=C1CCN2C(=C1C(=O)NC1CC1)Nc1ccccc12 [compound 43] | 16
CSc1cnccc1NC(=O)C1=C2Nc3ccccc3N2CCC1=O [compound 66] | 3300
O=C1CCN2C(=C1C(=O)Nc1nccnn1)Nc1ccccc12 [compound 49] | 54

So, O=C1CCN2C(=C1C(=O)Nc1cnccn1)Nc1ccccc12 [compound 63] ? Its IC50 was 360

The molecule listed as Cc1cccc2c1NC1=C(C(=O)Nc3ccncc3)C(=O)CCN12 [compound 88] has a reported IC50 of 390

IC50 in this record for O=C1CCN2C(=C1C(=O)Nc1ccncc1)Nc1ccccc12 [compound 35] : 160

Data point: O=C1CCN2C(=C1C(=O)Nc1ccncc1F)Nc1cc(F)ccc12 [compound 110] ; IC50 = 12

The measured IC50 associated with NC(=O)c1ccc(NC(=O)C2=C3Nc4ccccc4N3CCC2=O)cc1 [compound 90] reads 110

---

test: Suppression of anxiety (punished licking, conflict test) in the adult male rat; format: in vivo, male rats; details: Table 1, ip, minimum effective dose, >10 = active dose not determined, read-out: Conflict (ip) MED
measured quantity: minimal effective dose

Record excerpt, results attached:
molecule smiles | measured quantity | result
O=C1CCN2C(=C1C(=O)Nc1ccc(F)c(F)c1F)Nc1ccccc12 | minimal effective dose | > 10 mg/kg
O=C1CCN2C(=C1C(=O)Nc1ccc3ncccc3c1)Nc1ccccc12 | minimal effective dose | > 10 mg/kg
Cc1cccc2c1NC1=C(C(=O)Nc3ccccc3F)C(=O)CCN12 | minimal effective dose | < 10 mg/kg
O=C1CCN2C(=C1C(=O)Nc1ccccc1)Nc1cc(Cl)ccc12 | minimal effective dose | 10 mg/kg
O=C1CCN2C(=C1C(=O)Nc1c(Cl)cc(Cl)cc1Cl)Nc1ccccc12 | minimal effective dose | > 10 mg/kg

For reference, reported minimal effective dose for COc1ccc(NC(=O)C2=C3Nc4ccccc4N3CCC2=O)cc1OC stands at > 10 mg/kg

response.value for O=C1CCN2C(=C1C(=O)Nc1ccc3[nH]ccc3c1)Nc1ccccc12 (field: minimal effective dose) = > 10 mg/kg

So, CSc1cnccc1NC(=O)C1=C2Nc3ccccc3N2CCC1=O ? Its minimal effective dose was 10 mg/kg

Reported minimal effective dose for O=C1CCN2C(=C1C(=O)Nc1ccc3[nH]nnc3c1)Nc1ccccc12 was > 10 mg/kg

---

target: benzodiazepine site of the GABA-A receptor; assay: Benzodiazepine Receptor Binding Assay (inhibition of 3H-flunitrazepam binding); conditions: Table 1; ca. 3 nM 3H-flunitrazepam, 25° C., 10-20 min; >10,000 = not active
pIC50: −log10 of the molar value.
Classify as follows. Reported pIC50 greater than or equal to 7: Satisfied. Reported pIC50 below: Not satisfied.

Consider the worked cases shown below.
molecule smiles | label
CSc1ccc(NC(=O)C2=C3Nc4ccccc4N3CCC2=O)cc1 | Not satisfied
O=C1CCN2C(=C1C(=O)Nc1cc(F)ccc1F)Nc1ccccc12 | Satisfied
O=C1CCN2C(=C1C(=O)Nc1ccncc1F)Nc1ccccc12 | Satisfied

Reported pIC50 reaches at least 7 for O=C1CCN2C(=C1C(=O)Nc1c(Cl)cccc1Cl)Nc1ccccc12 ?
Not satisfied
